Values compiled from patent US20250034594A1.

# System: gene editing with dCas9
# Test Summary: Screen of 322 new SSAP proteins, gene editing activity with dCas9 (Table 5)
# Assay type: cell-based
# Experimental Conditions: normalized
Measured Parameter: dCas9 with SSAP activity (normalized)
The answer should be a number; do not append a unit.

Ask: Need dCas9 with SSAP activity (normalized), item SSAP_75: SEQ ID NO: 244 (protein) ANELGIFSVDNLNMTTIKQYLDGGGKASDAELVLLINLCKQNNMNPFMKEVYFIKYGNQPAQIVVSRDFYRKRAFQNPNFAGIEVGVIVLNKDGVLEHNEGTFKTHEQELVGAWARVHLKNTEIPVYVAVSYDEYVQMKDGHPNKMWTNKPCTMLGKVAESQALRMAFPAEFSGTYGEEELPEPEKEPREVNGVKEPDRAQIESFDKEDYAAKKIEELKEKAQPQKEVVKETGEVIDKITAEDF
Reply: −0.897
